Data provenance: PubChem BioAssay (Tox21)

assay: qHTS assay to identify small molecule HDAC inhibitors (AID 1259364); conditions: HCT-116 HDAC-Glo I/II luminescence, 2 h; series mostly up to 92.4 µM;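 note: wild-type HCT-116 cells with endogenous class I/II HDAC activity; nearly all actives have a fitted effect of over 45% in size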
Inconclusive results are not listed. Calls of active or inactive are those of the source. Calls come from the whole dose curve; as a rule, active = well fitted inhibition curve with a large enough effect in the repeat runs; inconclusive = weak or mixed curves; inactive = flat fitted curve, though single readings scatter.
Classes to choose from: true = active, false = inactive

Example results:
>  <Compound>
Cc1cc(C)c(N)cc1C

>  <Discrete Label>
false

$$$$
>  <Compound>
CC[N+](CC)(CCNC(=O)C(=O)NCC[N+](CC)(CC)Cc1ccccc1Cl)Cc1ccccc1Cl

>  <Discrete Label>
false

$$$$
>  <Compound>
C[C@H]1c2cccc(O)c2C(O)=C2C(=O)[C@]3(O)C(O)=C(C(N)=O)C(=O)[C@@H](N(C)C)[C@@H]3[C@@H](O)[C@@H]21

>  <Discrete Label>
false

$$$$

Query: Check the results log: what was the call for `O=[N+]([O-])c1cc(C2CCCCC2)c(O)c([N+](=O)[O-])c1` ?
Result: false

Query: Give the logged outcome of this assay for the following compound: `CCc1ccccc1`
Result: false

Query: Just curious, what result did `O=C=Nc1ccc(Cl)c(Cl)c1` get here?
Result: false

Query: Could you kindly confirm the outcome this assay logged for `CCOc1ccc(Cc2nccc3cc(OCC)c(OCC)cc23)cc1OCC` ?
Result: false

Query: Record lookup: outcome of this test for `CCOC(=O)c1ccc(C#Cc2ccc3c(c2)C(C)(C)CCS3)nc1` ?
Result: false

Query: Dear all, I need the recorded test outcome for `CCC(=O)OC` , thank you.
Result: false

Query: Test call for this compound, please: `CC1=C(CC=O)C(C)(C)CCC1`
Result: false

Query: So what was the verdict on `N#CCc1ccc(Cl)cc1Cl` in this test?
Result: false

Query: // return assay outcome for CCC1CO1 (configuration not stated)
Result: false

Query: GET /call?item= CCCCN(CCCC)C(C(N)=O)c1ccc(OC)cc1 (configuration not stated) returns the recorded outcome of this test.
Result: false

Query: Tell me the assay call for `Nc1nc2ccc([N+](=O)[O-])cc2s1` please.
Result: true

Query: Tell me the recorded outcome of this test for CC(CN(C)C)C(C)(O)Cc1ccc(Cl)cc1 (configuration not stated) .
Result: false

Query: // return assay outcome for `CC(C)Nc1cccnc1N1CCN(C(=O)c2cc3cc(NS(C)(=O)=O)ccc3[nH]2)CC1`
Result: false

Query: Would you mind telling me which call this test gave `C[C@@H]1CN(CCCn2c3ccccc3c3ccccc32)C[C@H](C)N1` ?
Result: false

###

test: qHTS assay to identify small molecule antagonists of the sonic hedgehog signaling (Shh) pathway - cell viability counter screen (AID 1259367); details: NIH/3T3 Gli1-Luc viability, CellTiter-Fluor, 24 h; series mostly up to 92.4 µM; note: nearly all actives have a fitted effect of over 55% in size
Results filed as inconclusive are left out. Activity calls are given as the source filed them. Calls follow the shape of the dose curve; as a rule, active = well fitted cell-killing curve with a large enough effect in the repeat runs; inconclusive = weak or mixed curves, or effect the other way; inactive = no such curve, though single readings can be large or run the other way.
Result category, one only: true (1) (active), false (0) (inactive)

Example entries and their recorded answers appear below.
>  <Compound>
O=[N+]([O-])c1cc(C2CCCCC2)c(O)c([N+](=O)[O-])c1

>  <Discrete Label>
true (1)

$$$$
>  <Compound>
O=C(CCc1ccc(O)cc1)c1c(O)cc(O)cc1O

>  <Discrete Label>
false (0)

$$$$
>  <Compound>
COc1ncnc(NS(=O)(=O)c2ccc(N)cc2)c1OC

>  <Discrete Label>
false (0)

$$$$
>  <Compound>
CCC1(CO)COCOC1

>  <Discrete Label>
false (0)

$$$$
>  <Compound>
CN1C[C@H](C(=O)N[C@]2(C)O[C@@]3(O)[C@@H]4CCCN4C(=O)[C@H](Cc4ccccc4)N3C2=O)C[C@@H]2c3cccc4[nH]cc(c34)C[C@H]21

>  <Discrete Label>
false (0)

$$$$
>  <Compound>
CCCCCCCCCCC(=O)O

>  <Discrete Label>
false (0)

$$$$
>  <Compound>
CCC1CO1 (configuration not stated)

>  <Discrete Label>
false (0)

$$$$
>  <Compound>
CC(C)C[C@H](NC(=O)[C@H](CCc1ccccc1)NC(=O)CN1CCOCC1)C(=O)N[C@@H](Cc1ccccc1)C(=O)N[C@@H](CC(C)C)C(=O)[C@@]1(C)CO1

>  <Discrete Label>
false (0)

$$$$
>  <Compound>
CCCCC(CC)COP(=O)(O)O (configuration not stated)

>  <Discrete Label>
false (0)

$$$$
>  <Compound>
COC(=O)[C@H]1[C@H]2C[C@@H]3c4[nH]c5cc(OC)ccc5c4CCN3C[C@H]2C[C@@H](OC(=O)/C=C/c2ccc(O)c(OC)c2)[C@@H]1OC

>  <Discrete Label>
false (0)

$$$$

Query: What is the recorded call for this compound in the test? `CCOC(=O)c1ccccc1C(=C1C=C(Br)C(=O)C(Br)=C1)c1cc(Br)c(O)c(Br)c1`
Result: false (0)

Query: # lookup: test call for `CCCCCCCCN`
Result: false (0)
